Origin of values: patent US20090170762A1

tested on: DPP-IV (Homo sapiens)
Sequence (P27487 whole entry, species assumed): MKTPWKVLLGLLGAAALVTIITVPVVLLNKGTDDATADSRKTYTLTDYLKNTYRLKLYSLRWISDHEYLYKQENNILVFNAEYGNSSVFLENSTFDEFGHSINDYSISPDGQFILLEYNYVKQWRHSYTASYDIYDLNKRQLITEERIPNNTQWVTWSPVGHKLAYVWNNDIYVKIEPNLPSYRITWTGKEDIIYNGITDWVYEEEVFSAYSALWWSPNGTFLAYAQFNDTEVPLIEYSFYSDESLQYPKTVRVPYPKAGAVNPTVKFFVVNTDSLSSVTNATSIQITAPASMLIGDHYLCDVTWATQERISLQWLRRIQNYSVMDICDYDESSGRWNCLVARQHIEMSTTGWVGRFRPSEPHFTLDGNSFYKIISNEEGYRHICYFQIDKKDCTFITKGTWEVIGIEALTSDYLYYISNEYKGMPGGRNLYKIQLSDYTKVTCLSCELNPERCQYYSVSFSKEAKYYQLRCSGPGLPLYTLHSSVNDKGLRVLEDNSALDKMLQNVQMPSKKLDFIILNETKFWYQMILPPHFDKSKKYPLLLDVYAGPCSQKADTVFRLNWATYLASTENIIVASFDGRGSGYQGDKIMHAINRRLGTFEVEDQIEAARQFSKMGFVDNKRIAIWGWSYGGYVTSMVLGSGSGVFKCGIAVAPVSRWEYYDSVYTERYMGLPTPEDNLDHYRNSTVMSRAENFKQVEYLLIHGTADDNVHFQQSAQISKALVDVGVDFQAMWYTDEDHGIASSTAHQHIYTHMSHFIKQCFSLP
experiment summary: Degradation of GIP and Glu3-substituted GIP analogs by DPP-IV (HPLC)
Format: in vitro ADME
study conditions: DPP-IV enzyme (5 mU) in buffer, pH 7.8; incubation with DPP-IV; unit not given (time points in hrs); read-out: Estimated Half-Life (converted)
Ends that are not written are not given here.
Please respond with reported half-life at 2 μm for every item in the list.
Your answer is read as h, so omit the unit and give the number.

Reported half-life at 2 μm of YAAGTFISDYSIAMDKIHQQDFVNWLLAQKGKKNDWKHNITQ [(Ala^3)GIP] : 1.1

Reported half-life at 2 μm of YAYGTFISDYSIAMDKIHQQDFVNWLLAQKGKKNDWKHNITQ [(Tyr^3)GIP] : 1.5

Reported half-life at 2 μm of YAFGTFISDYSIAMDKIHQQDFVNWLLAQKGKKNDWKHNITQ [(Phe^3)GIP] : 1.2

Reported half-life at 2 μm of YAWGTFISDYSIAMDKIHQQDFVNWLLAQKGKKNDWKHNITQ [(Trp^3)GIP] : 1.3

Reported half-life at 2 μm of YAKGTFISDYSIAMDKIHQQDFVNWLLAQKGKKNDWKHNITQ [(Lys^3)GIP] : 1.7
